Entries and their measured IC50 follow.
Target: T1, hRAGE-Fc (human, UniProt Q15109 23-342, biotin label in the selections and HTRF assays)
T1 construct: extracellular domain; also called biotin labeled hRAGE-Fc; Biotin-labeled RAGE-Fc; not shown: Fc part
T1 sequence (Q15109 23-342): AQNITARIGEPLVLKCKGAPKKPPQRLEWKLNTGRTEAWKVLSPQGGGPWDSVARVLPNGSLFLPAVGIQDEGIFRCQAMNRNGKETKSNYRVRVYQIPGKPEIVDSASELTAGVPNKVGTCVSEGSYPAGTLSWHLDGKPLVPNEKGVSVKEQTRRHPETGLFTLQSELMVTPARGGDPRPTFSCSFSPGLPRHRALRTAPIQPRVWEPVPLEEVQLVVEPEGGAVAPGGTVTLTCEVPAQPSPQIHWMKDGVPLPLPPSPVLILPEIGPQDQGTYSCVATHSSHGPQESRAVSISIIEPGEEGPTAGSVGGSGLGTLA
Test: HTRF competition, scFv vs labelled parental XT-M4 (competitor) on hRAGE
Protocol: Increases in binding to RAGE antigen were detected with the aid of a competition assay using parental XT-M4 antibody. […] This is an assay that measures the decrease in fluorescence upon binding of parental europium cryptate-labeled XT-M4 to RAGE in the presence of competing test scFv antibodies. […] The ability of the scFV to compete with parental XT-M4 antibody to bind to Biotin-labeled RAGE-Fc was determined. […]
Value Kind: IC50

| Binder | Val |
| --- | --- |
| 6C3 scFv (scFv) scFv: DIQMTQSPSSLSASVGDRVTITCRASQDVGIYVNWFQQKPGKAPRRLIYRATNLADGVPSRFSGSRSGTDFTLTISSLQPEDFATYYCLEFDEHPLTFGGGTKVEIKDGGGSGGGGSGGGGSSEVQLVESGGGLVQPGGSLRLSCAASGFTFNNYWMTWVRQAPGKGLEWVASIDNSGDNTYYPDSVKDRFTISRDNAKNSLYLQMNSLRAEDTAVYYCARGGDITLGLDVWGQGTLVTVSS | 1.53 nM |
| 6G4 scFv (scFv) scFv: DIQMTQSPSSLSASVGDRVTITCRASQDVGIYVNWFQQKPGKAPRRLIYRATNLADGVPSRFSGSRSGTDFTLTISSLQPEDFATYYCLEFDEHPLTFGGGTKVEIKDGGGSGGGGSGGGGSSEVQLVESGGGLVQPGGSLRLSCAASGFTFNNYWMTWVRQAPGKGLEWVASIDNSGDNTYYPDSVKDRFTISRDNAKNSLYLQMNSLRAEDTAVYYCARGGDILDSLHFWGQGTLVTVSS | 2.03 nM |
